Every entry's value here was drawn from patent US20130230533A1.

Target: T1, Monomeric human CD48-mmH (human)
T1 construct: also called soluble CD48 expressed with a myc-myc-hexa-histidine C-terminal tag [mmH]
T1 chain: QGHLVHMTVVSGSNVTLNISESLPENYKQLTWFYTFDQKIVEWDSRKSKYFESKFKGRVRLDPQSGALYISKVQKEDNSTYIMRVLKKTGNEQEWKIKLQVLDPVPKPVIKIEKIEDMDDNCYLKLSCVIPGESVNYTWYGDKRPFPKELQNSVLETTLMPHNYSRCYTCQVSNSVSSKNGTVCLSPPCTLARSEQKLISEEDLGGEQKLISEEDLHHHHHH
Assay: SPR (Biacore T100), 25 C, antibody captured by anti-Fc, monomeric CD48-mmH in solution
Recorded measurements of kon, one per entry
# value in M⁻¹ s⁻¹; strip the unit string

Tell us which kon value is on record for H2M1811N (antibody, mouse IgG2, V domains shown, Human variable domains, mouse IgG2 Fc (prefix H2M)) VH: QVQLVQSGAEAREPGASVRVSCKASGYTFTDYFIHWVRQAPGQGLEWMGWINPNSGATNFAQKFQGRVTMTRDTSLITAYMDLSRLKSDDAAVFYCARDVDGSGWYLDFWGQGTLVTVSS VL: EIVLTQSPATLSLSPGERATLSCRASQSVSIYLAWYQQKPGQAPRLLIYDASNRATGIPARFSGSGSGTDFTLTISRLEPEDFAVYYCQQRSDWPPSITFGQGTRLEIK
50000

Tell us which kon value is on record for H2M1707N (antibody, mouse IgG2, V domains shown) VH: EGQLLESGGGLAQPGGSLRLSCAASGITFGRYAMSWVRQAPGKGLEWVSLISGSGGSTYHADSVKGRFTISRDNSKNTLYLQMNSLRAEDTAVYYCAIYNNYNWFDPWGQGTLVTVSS VL: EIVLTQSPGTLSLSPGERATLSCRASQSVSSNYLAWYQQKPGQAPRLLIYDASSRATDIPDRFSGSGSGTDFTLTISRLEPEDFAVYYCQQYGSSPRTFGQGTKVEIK
131000

Tell us which kon value is on record for H4H1779P (antibody, human IgG4, V domains shown, Human IgG4 Fc (prefix H4H)) VH: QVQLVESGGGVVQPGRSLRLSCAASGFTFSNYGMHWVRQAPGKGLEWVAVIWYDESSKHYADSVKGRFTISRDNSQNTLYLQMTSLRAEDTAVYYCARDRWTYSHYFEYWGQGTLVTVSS VL: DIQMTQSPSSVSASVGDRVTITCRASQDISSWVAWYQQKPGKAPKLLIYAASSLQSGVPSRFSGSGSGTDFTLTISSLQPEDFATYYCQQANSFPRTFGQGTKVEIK
158000

Tell us which kon value is on record for H4H1775P (antibody, human IgG4, V domains shown, Human IgG4 Fc (prefix H4H)) VH: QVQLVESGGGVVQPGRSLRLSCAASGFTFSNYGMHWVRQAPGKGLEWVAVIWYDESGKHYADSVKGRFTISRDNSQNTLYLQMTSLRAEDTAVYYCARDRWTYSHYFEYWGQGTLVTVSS VL: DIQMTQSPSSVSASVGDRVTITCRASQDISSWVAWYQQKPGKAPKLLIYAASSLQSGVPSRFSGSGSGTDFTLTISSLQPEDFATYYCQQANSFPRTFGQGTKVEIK
145000
